# Measurement Target: Mast/stem cell growth factor receptor Kit (Homo sapiens)
# Protocol Details: Inhibition of wild type c-KIT (unknown origin)
Listed here are molecules together with their documented pIC50.
// returns pIC50 (minus log10 of molar concentration), number only

1) COc1ccc(-c2cnc3[nH]cc(-c4ccc(OC)c(OC)c4)c3c2)cc1OC	6.85
2) COc1ccc(-c2c[nH]c3ncc(-c4cccc(N)c4)cc23)cc1OC	5.97
3) COc1ccc(-c2cnc3[nH]cc(-c4ccc(OC)c(OC)c4)c3c2)cc1	6.43

Fill blank: measured pIC50 of the molecule COc1ccc(-c2c[nH]c3ncc(-c4ccc(OCCN5CCOCC5)c(N)c4)cc23)cc1OC is ____.
5.07

Fill blank: measured pIC50 of the molecule COc1cccc(-c2cnc3[nH]cc(-c4ccc(OC)c(OC)c4)c3c2)c1 is ____.
5.82

---

# Measurement Target: Mast/stem cell growth factor receptor Kit (Homo sapiens, UniProt P10721, D816V)
# Sequence (P10721 26-976 D816V limits assumed): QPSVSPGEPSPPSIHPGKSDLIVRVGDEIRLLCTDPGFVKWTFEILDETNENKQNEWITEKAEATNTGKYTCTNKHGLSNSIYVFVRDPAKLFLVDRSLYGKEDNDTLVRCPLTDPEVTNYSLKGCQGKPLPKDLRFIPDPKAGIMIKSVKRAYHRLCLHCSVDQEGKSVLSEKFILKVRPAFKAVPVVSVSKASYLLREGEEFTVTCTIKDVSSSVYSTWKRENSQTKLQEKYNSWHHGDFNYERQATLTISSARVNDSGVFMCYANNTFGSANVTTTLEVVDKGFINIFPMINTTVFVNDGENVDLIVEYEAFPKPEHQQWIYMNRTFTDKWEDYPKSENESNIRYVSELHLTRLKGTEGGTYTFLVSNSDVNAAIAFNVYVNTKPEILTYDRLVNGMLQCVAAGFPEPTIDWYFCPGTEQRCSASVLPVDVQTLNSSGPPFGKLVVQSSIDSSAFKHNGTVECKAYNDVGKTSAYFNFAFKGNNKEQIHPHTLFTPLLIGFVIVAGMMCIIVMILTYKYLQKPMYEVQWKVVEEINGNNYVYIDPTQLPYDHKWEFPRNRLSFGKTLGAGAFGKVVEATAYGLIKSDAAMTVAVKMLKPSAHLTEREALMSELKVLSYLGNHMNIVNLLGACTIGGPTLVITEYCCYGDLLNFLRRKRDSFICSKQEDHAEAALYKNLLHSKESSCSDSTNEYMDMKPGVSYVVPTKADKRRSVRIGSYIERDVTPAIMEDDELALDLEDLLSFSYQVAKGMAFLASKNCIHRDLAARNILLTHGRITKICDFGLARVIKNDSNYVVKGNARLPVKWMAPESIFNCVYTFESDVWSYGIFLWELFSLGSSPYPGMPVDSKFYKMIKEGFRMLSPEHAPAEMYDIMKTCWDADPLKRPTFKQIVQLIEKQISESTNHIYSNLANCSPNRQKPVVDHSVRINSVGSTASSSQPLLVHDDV
# Protocol Details: Inhibition of c-KIT D816V mutant (unknown origin)
Checkbox rule: IC50 lower than 100 nM = Fulfilled; IC50 not lower than 100 nM = Not fulfilled.

These solved cases illustrate the format of a correct answer.
1. Nc1cccc(-c2cnc3[nH]cc(-c4cccc(N)c4)c3c2)c1	Fulfilled
2. COc1ccc(-c2c[nH]c3ncc(-c4cncc(NS(=O)(=O)c5ccccc5)c4)cc23)cc1OC	Not fulfilled
3. COc1ccc(-c2c[nH]c3ncc(-c4ccncc4)cc23)cc1OC	Fulfilled
4. COc1ccc(-c2c[nH]c3ncc(-c4cccc(N)c4)cc23)cc1F	Not fulfilled
5. COc1cc(OC)cc(-c2c[nH]c3ncc(-c4cccc(N)c4)cc23)c1	Not fulfilled

Given the entry COc1ccc(-c2c[nH]c3ncc(-c4cccc(N)c4)cc23)cc1OC , would its reported IC50 be below 100 nM?
Fulfilled

Given the entry COc1ccc(-c2c[nH]c3ncc(-c4ccc(C(=O)N5CCOCC5)c(N)c4)cc23)cc1OC , would its reported IC50 be below 100 nM?
Fulfilled

Given the entry COc1cccc(-c2c[nH]c3ncc(-c4cccc(N)c4)cc23)c1 , would its reported IC50 be below 100 nM?
Not fulfilled

Given the entry COc1ccc(-c2cnc3[nH]cc(-c4ccc(OC)c(OC)c4)c3c2)cc1N , would its reported IC50 be below 100 nM?
Fulfilled

Given the entry COc1ccc(-c2c[nH]c3ncc(-c4cc(OC)c(OC)c(OC)c4)cc23)cc1OC , would its reported IC50 be below 100 nM?
Fulfilled

---

# Measurement Target: Mast/stem cell growth factor receptor Kit (Homo sapiens, UniProt P10721)
# Sequence (P10721 whole entry): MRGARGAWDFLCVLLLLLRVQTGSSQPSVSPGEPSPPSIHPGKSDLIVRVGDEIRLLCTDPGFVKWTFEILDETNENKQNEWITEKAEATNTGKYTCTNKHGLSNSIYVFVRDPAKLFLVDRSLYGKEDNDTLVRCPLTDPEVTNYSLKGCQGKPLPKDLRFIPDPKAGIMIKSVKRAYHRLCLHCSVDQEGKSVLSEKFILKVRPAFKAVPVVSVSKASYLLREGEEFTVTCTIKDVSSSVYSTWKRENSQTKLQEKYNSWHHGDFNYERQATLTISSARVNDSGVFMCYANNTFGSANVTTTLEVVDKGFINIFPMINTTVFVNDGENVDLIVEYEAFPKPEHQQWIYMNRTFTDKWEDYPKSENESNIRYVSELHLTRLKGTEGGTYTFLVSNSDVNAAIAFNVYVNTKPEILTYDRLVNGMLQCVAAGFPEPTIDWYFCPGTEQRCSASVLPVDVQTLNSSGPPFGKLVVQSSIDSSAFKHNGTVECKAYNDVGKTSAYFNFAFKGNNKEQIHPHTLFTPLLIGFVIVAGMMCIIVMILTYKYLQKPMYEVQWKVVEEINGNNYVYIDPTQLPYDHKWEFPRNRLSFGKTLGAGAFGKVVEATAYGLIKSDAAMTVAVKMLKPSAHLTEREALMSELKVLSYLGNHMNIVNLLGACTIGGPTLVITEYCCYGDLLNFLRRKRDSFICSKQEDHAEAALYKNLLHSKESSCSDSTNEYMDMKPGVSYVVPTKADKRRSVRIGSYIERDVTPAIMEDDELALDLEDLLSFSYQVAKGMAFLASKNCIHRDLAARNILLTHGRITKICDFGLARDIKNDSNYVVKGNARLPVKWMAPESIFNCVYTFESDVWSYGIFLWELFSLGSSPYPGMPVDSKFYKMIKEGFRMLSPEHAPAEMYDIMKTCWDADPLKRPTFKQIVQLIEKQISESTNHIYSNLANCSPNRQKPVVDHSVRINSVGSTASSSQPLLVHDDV
# Protocol Details: Inhibition of wild type c-KIT (unknown origin)
Listed here are compounds together with their documented IC50.

Some compounds with recorded IC50:
1) COc1cc(N)cc(-c2cnc3[nH]cc(-c4ccc(OC)c(OC)c4)c3c2)c1	> 10 µM
2) COc1ccc(-c2cnc3[nH]cc(-c4ccc(OC)c(OC)c4)c3c2)cc1N	> 10 µM

// below: IC50 requested for another compound
Fill blank: measured IC50 of the compound COc1ccc(-c2c[nH]c3ncc(-c4ccc(C)cc4)cc23)cc1OC is ____.
> 10 µM
